Each record here notes measured MIC.
- Test system: Salmonella ATCC 12176
Where a name gives a salt, the structure may show the parent alone.
Reported metric: MIC (µg/mL)

# Compound, Numeric readout
data = [
    ("CO[C@@]1(NC(=O)Cc2cccs2)C(=O)N2C(C(=O)O)=C(COC(N)=O)CS[C@@H]21 [Cefoxitin, reference compound]", 3.1),
    ("Cc1nnc(SCC2=C(C(=O)O)N3C(=O)[C@@H](NC(=O)Cn4cnnn4)[C@H]3SC2)s1 [Cefazolin, reference compound]", 0.8),
    ("O=C(O)C1=C(CSc2nnnn2CS(=O)(=O)O)CS[C@@H]2[C@H](NC(=O)/C(=N\\O)c3ccccc3)C(=O)N12 [Compound C, disodium salt]", 0.8),
]

---

- System: P. Mirabils PM 444
- Assay protocol: MIC in vitro, P. Mirabils PM 444 (G-)
- Assay type: cell-based
- Measurement setup: P. Mirabils PM 444, G-; read-out: MIC in vitro
Structures can show the parent of a compound that is named as a salt.
Below, each of the molecules is paired with its reported MIC value.
Reported metric: MIC (µg/mL)

# Molecule, Numeric readout
rows = [
    ("CO/N=C(\\C(=O)N[C@@H]1C(=O)N2C(C(=O)O)=C(CSc3nnnn3CS(=O)(=O)O)CS[C@H]12)c1ccco1 [A, disodium salt hydrate]", 1.6),
    ("CO[C@@]1(NC(=O)Cc2cccs2)C(=O)N2C(C(=O)O)=C(COC(N)=O)CS[C@@H]21 [Cefoxitin, reference compound]", 6.3),
    ("Cc1nnc(SCC2=C(C(=O)O)N3C(=O)[C@@H](NC(=O)Cn4cnnn4)[C@H]3SC2)s1 [Cefazolin, reference compound]", 3.1),
    ("CO/N=C(\\C(=O)N[C@@H]1C(=O)N2C(C(=O)O)=C(COC(N)=O)CS[C@H]12)c1ccco1 [Cefuroxime, reference compound]", 1.6),
]

---

The reader will find reported MIC values listed item by item below.
- Test system: S. Aureus SK 23390
Counter-ions that a name gives are not always drawn.

# Compound, MIC [µg/mL]
rows = [
    ("CO[C@@]1(NC(=O)Cc2cccs2)C(=O)N2C(C(=O)O)=C(COC(N)=O)CS[C@@H]21 [Cefoxitin, reference compound]", 3.1),
    ("Cc1nnc(SCC2=C(C(=O)O)N3C(=O)[C@@H](NC(=O)Cn4cnnn4)[C@H]3SC2)s1 [Cefazolin, reference compound]", 0.2),
    ("CO/N=C(\\C(=O)N[C@@H]1C(=O)N2C(C(=O)O)=C(CSc3nnnn3CS(=O)(=O)O)CS[C@H]12)c1ccccc1 [Compound B, disodium salt]", 1.6),
    ("O=C(O)C1=C(CSc2nnnn2CS(=O)(=O)O)CS[C@@H]2[C@H](NC(=O)/C(=N\\O)c3ccccc3)C(=O)N12 [Compound C, disodium salt]", 0.8),
    ("CO/N=C(\\C(=O)N[C@@H]1C(=O)N2C(C(=O)O)=C(COC(N)=O)CS[C@H]12)c1ccco1 [Cefuroxime, reference compound]", 1.6),
    ("CO/N=C(\\C(=O)N[C@@H]1C(=O)N2C(C(=O)O)=C(CSc3nnnn3CS(=O)(=O)O)CS[C@H]12)c1ccco1 [A, disodium salt hydrate]", 3.1),
]

---

# MIC values compiled below
- Test system: Entero. aerogenes ATCC 13048
- Assay protocol: MIC in vitro, Entero. aerogenes ATCC 13048 (G-)
- Format: cell-based
- Measurement setup: Klebsiella aerogenes, ATCC13048; Entero. aerogenes ATCC 13048, G-; read-out: MIC in vitro
Structures can show the parent of a compound that is named as a salt.

# Molecule, Result units, MIC
records = [
    ("CO/N=C(\\C(=O)N[C@@H]1C(=O)N2C(C(=O)O)=C(COC(N)=O)CS[C@H]12)c1ccco1 [Cefuroxime, reference compound]", "µg/mL", 6.3),
    ("CO[C@@]1(NC(=O)Cc2cccs2)C(=O)N2C(C(=O)O)=C(COC(N)=O)CS[C@@H]21 [Cefoxitin, reference compound]", "µg/mL", 25),
    ("Cc1nnc(SCC2=C(C(=O)O)N3C(=O)[C@@H](NC(=O)Cn4cnnn4)[C@H]3SC2)s1 [Cefazolin, reference compound]", "µg/mL", 1.6),
    ("CO/N=C(\\C(=O)N[C@@H]1C(=O)N2C(C(=O)O)=C(CSc3nnnn3CS(=O)(=O)O)CS[C@H]12)c1ccco1 [A, disodium salt hydrate]", "µg/mL", 3.1),
    ("O=C(O)C1=C(CSc2nnnn2CS(=O)(=O)O)CS[C@@H]2[C@H](NC(=O)/C(=N\\O)c3ccccc3)C(=O)N12 [Compound C, disodium salt]", "µg/mL", 6.3),
]
